tested on: A-549; assay: cells; format: cell-based, human; conditions: A-549 human lung carcinoma; read-out: Antiproliferative activity IC50
Quantity measured: IC50 (nM)
Answer with a number only, understood to be in nM.

[in] // returns reported IC50 for input `C/C=C/[C@@H]1O[C@H]([C@@H](/C=C/C=C(\C)C[C@@H](C)/C=C(C)\C=C\[C@H]2CC=CC(=O)O2)NC(=O)OCc2ccc(NC(=O)[C@H](CCCNC(N)=O)NC(=O)[C@@H](NC(=O)OCCc3cn(CCC[C@H](NC(=O)[C@H](Cc4ccc(O)cc4)NC(=O)[C@H](CO)NC(=O)[C@H](Cc4c[nH]c5ccccc45)NC(=O)[C@H](Cc4c[nH]cn4)NC(=O)[C@@H]4CCC(=O)N4)C(=O)N[C@@H](CC(C)C)C(=O)N[C@@H](CCCNC(=N)N)C(=O)N4CCC[C@H]4C(=O)NCC(N)=O)nn3)C(C)C)cc2)C[C@@H](O)[C@@H]1C`
[out] 1200

Sourced from paper PMC6540907
